test: Cell viability assay (MTT); type: cell-based, human; settings: human, HEK293 cells, 50 µM, regardless of irradiation, read-out: Remaining viability
testReadout: viability at 24 h, 50 µM

## Input I have this compound here, CCCCCc1ccc(SCCP(=O)(OCC)N2CCC[C@H](N)C2=O)cc1 (stereo partly shown) [Compound 1] , and I need its recorded viability at 24 h, 50 µM.
## Output ~15%

* * *

molecular target: human DPP4 (Homo sapiens, UniProt P27487)
Sequence (P27487 whole entry): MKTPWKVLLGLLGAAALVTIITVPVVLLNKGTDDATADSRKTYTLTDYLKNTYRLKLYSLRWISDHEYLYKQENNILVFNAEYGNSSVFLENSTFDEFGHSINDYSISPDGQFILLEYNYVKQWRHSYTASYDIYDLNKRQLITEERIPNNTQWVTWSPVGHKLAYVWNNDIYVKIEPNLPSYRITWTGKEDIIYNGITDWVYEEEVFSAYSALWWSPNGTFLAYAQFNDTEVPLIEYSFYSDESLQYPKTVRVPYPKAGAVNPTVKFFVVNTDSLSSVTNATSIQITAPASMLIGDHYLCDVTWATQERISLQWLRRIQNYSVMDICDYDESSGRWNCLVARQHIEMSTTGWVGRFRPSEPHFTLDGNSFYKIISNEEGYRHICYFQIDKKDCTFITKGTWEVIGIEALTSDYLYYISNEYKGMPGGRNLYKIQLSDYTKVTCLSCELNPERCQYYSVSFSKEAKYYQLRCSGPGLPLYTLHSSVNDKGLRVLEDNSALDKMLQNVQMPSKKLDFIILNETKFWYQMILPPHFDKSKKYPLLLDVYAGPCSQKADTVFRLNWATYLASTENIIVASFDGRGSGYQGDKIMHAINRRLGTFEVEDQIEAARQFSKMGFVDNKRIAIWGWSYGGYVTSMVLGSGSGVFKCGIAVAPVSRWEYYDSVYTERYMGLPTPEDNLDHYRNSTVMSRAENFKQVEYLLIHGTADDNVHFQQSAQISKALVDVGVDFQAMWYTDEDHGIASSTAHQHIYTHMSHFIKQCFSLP
testReadout: IC50

## Input Tell me reported IC50 for CCCCCc1ccc(SCCP(=O)(OCC)N2CCC[C@H](NC(=O)OCC3=C4C(C)=CC(C)=[N+]4[B-](C)(C)n4c(C)cc(C)c43)C2=O)cc1 (stereo partly shown) , tested with human DPP4 (Homo sapiens, UniProt P27487).
## Output > 100 µM
